All figures here come from patent US6987110B2.

# testTarget: PKC isoform α (Homo sapiens)
# assaySummary: Protein Kinase C histone-based assay, PKC α
# statedConditions: histone III substrate, 30 μM ATP; error approximately within ±30 percent; read-out: PKC Activity, Alpha (IC50, Histone Based Assay)
pIC50: −log10 of the molar value.
measuredAttribute: pIC50

(A) O=C1NC(=O)C(c2cn(-c3cccnc3)c3ccccc23)=C1c1cn(CCn2ncnn2)c2ccccc12 [Compound 9]
(B) O=C1NC(=O)C(c2cn(-c3cncnc3)c3ccccc23)=C1c1cn(CCO)c2ccccc12 [Compound 2]
(C) O=C1NC(=O)C(c2cn(-c3cnc4ccccc4c3)c3ccccc23)=C1c1cn(CCO)c2ccccc12 [Compound 3]
stdin: Arrange items by their pIC50 values in increasing order. List the labels in the requested order.
stdout: A, C, B
(A: 6.04, C: 6.34, B: 6.64)

----------
# testTarget: PKC isoform β-II (Homo sapiens, UniProt P05771)
# Sequence (P05771 1-673 isoform P05771-2): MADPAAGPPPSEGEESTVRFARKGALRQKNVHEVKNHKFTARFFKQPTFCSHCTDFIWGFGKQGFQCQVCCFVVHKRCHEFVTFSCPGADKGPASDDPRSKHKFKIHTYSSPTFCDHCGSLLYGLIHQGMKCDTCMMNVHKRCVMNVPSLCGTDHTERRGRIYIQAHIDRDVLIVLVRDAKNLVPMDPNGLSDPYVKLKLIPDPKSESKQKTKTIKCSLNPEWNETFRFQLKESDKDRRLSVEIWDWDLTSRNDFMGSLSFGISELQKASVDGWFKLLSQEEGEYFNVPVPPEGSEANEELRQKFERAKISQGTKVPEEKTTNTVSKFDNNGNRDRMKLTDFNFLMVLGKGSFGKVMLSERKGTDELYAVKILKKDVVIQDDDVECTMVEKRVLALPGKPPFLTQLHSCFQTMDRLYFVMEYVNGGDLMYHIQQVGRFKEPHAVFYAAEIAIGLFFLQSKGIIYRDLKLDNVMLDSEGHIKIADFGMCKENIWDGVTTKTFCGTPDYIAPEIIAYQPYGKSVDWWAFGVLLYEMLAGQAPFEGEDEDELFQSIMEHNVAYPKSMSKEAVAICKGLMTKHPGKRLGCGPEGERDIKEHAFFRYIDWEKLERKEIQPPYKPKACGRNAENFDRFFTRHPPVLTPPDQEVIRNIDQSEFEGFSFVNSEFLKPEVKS
# assaySummary: Protein Kinase C histone-based assay, PKC β-II
# statedConditions: histone III substrate, 30 μM ATP; error approximately within ±30 percent; read-out: PKC Activity, Beta II (IC50, Histone Based Assay)
measuredAttribute: IC50 (nM)

entrysmiles=O=C1NC(=O)C(c2cn(-c3cccnc3)c3ccccc23)=C1c1cn(CCn2ncnn2)c2ccccc12 measuredattribute=IC50 measurementunits=nM measured=54

(I) O=C1NC(=O)C(c2cn(-c3cncnc3)c3ccccc23)=C1c1cn(-c2cccnc2)c2ccccc12
(II) O=C1NC(=O)C(c2cn(-c3cncnc3)c3ccccc23)=C1c1cn(CCO)c2ccccc12
stdin: Lower IC50: I or II ? Choose, then provide that item's label.
stdout: II
(II: 15 nM, I: 60 nM)

----------
# testTarget: recombinant rabbit GSK-3β (Oryctolagus cuniculus)
# Sequence (G1T8E2 1-432): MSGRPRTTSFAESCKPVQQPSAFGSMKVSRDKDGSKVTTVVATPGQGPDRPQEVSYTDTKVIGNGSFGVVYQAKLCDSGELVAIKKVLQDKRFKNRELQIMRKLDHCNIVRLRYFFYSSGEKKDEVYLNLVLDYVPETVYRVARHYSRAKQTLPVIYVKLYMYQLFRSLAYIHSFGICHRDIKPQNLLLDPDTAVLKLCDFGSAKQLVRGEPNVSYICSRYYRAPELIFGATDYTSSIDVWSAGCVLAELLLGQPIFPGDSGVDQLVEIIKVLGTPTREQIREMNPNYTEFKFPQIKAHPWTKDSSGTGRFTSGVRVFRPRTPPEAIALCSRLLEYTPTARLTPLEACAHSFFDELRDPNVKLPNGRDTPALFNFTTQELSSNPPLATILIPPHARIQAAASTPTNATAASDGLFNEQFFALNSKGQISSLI
# assaySummary: Glycogen Synthase Kinase-3 assay (PPI-2 phosphorylation)
# statedConditions: PPI-2 substrate, 33P-ATP, 90 minutes at 30° C.
measuredAttribute: IC50 (nM)

(a) Cn1cc(C2=C(c3cn(-c4cncnc4)c4ccccc34)C(=O)NC2=O)c2ccccc21
(b) O=C1NC(=O)C(c2cn(-c3cncnc3)c3ccccc23)=C1c1cn(-c2cccnc2)c2ccccc12
stdin: // which entry has the larger IC50 value, a or b ? Choose, then provide that item's label.
stdout: b

----------
# testTarget: PKC isoform α (Homo sapiens, UniProt P17252)
# assaySummary: Protein Kinase C histone-based assay, PKC α
# statedConditions: histone III substrate, 30 μM ATP; error approximately within ±30 percent; read-out: PKC Activity, Alpha (IC50, Histone Based Assay)
measuredAttribute: IC50 (nM)

molecule="CN(C)CCCn1cc(C2=C(c3cn(-c4ccccc4)c4ccccc34)C(=O)NC2=O)c2ccccc21 [Compound 6]" measuredattribute=IC50 measured=58

(A) O=C1NC(=O)C(c2cn(-c3cccnc3)c3ccccc23)=C1c1cn(CCO)c2ccccc12 [Compound 1]
(B) O=C1NC(=O)C(c2cn(-c3cncnc3)c3ccccc23)=C1c1cn(-c2cccnc2)c2ccccc12 [Compound 11]
(C) O=C1NC(=O)C(c2cn(-c3cccnc3)c3ccccc23)=C1c1cn(CCn2cnnn2)c2ccccc12 [Compound 10]
stdin: Given 3 molecules, produce a descending ranking by IC50. List the labels in the requested order.
stdout: B, C, A
(B: 3040 nM, C: 1010 nM, A: 64 nM)

----------
# testTarget: PKC isoform γ (Homo sapiens)
# assaySummary: Protein Kinase C histone-based assay, PKC γ
# statedConditions: histone III substrate, 30 μM ATP; error approximately within ±30 percent; read-out: PKC Activity, Gamma (IC50, Histone Based Assay)
pIC50: −log10 of the molar value.
measuredAttribute: pIC50

Examples with their reported pIC50 follow.
compound="O=C1NC(=O)C(c2cn(-c3cccnc3)c3ccccc23)=C1c1cn(CCn2ncnn2)c2ccccc12 [Compound 9]" measured=5.31
compound="O=C1NC(=O)C(c2cn(-c3cncnc3)c3ccccc23)=C1c1cn(CCO)c2ccccc12 [Compound 2]" measured=6.37

(a) O=C1NC(=O)C(c2cn(-c3cnc4ccccc4c3)c3ccccc23)=C1c1cn(CCO)c2ccccc12 [Compound 3]
(b) O=C1NC(=O)C(c2cn(-c3cccnc3)c3ccccc23)=C1c1cn(CCO)c2ccccc12 [Compound 1]
(c) O=C1NC(=O)C(c2cn(-c3cccnc3)c3ccccc23)=C1c1cn(CCn2cnnn2)c2ccccc12 [Compound 10]
(d) O=C1NC(=O)C(c2cn(-c3cncnc3)c3ccccc23)=C1c1cn(-c2cccnc2)c2ccccc12 [Compound 11]
stdin: Arrange the 4 compounds by rising pIC50, starting with the smallest. List the labels in the requested order.
stdout: c, d, a, b
